Cited source: patent US20090023721A1

# ASSAY_TARGET: NET (Rattus norvegicus)
# Construct: Cortex from rat brain was collected and homogenised
# Sequence (Q9WTR4 1-597): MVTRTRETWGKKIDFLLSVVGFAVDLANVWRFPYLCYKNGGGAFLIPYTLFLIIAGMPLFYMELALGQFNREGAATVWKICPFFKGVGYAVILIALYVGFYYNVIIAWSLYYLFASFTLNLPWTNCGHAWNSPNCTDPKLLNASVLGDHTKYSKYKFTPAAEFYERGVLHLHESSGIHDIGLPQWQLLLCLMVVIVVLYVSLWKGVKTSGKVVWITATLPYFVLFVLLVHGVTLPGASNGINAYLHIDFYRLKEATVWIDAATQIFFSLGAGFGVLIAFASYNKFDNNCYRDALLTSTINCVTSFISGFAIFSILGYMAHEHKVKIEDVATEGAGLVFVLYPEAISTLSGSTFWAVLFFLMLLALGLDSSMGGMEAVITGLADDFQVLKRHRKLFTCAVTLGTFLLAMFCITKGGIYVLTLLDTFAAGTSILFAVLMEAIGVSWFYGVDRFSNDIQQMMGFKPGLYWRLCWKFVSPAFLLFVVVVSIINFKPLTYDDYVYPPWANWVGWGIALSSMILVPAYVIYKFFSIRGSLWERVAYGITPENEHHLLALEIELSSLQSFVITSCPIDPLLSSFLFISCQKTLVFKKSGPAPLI
# PROTOCOL_TEXT: In vitro determination of NET reuptake inhibition ([3H]Nixosetine binding, rat brain cortex membranes)
# Protocol: Cortex from rat brain was collected and homogenised using an Ultra-Turrax T25 and a Dual homogeniser in ice-cold homogenising buffer containing Tris, NaCl and KCl (50 mM, 120 mM and 5 mM, respectively, pH 7.4) prior to dilution to an appropriate protein concentration optimised for specific and non-specific binding. […] Percentage specific bound and competition binding curves were calculated using S-Plus software (Insightful).
Label criterion met when IC50 < 500 nM; otherwise criterion not met.

Query: Is 500 nM strictly greater than the molecule's reported IC50? molecule: COC(=O)N1[C@@H](CN(C)C)CC[C@@H]2c3ccccc3Cc3ccc(F)cc3[C@H]21 [compound 45]
Reply: criterion not met

Query: Problem: For the molecule Fc1ccc2c(c1)[C@H]1N[C@@H](CN3CCOCC3)C[C@@H]1c1ccccc1C2 [compound 42] , is IC50 under 500 nM?
Reply: criterion not met

Query: Dear reviewer, please state whether CN1C[C@@H]2C[C@@H]3c4ccccc4Cc4ccc(F)cc4[C@H]3N2C1 [compound 1] has IC50 strictly beneath 500 nM.
Reply: criterion met

Query: Threshold test, IC50 < 500 nM: CNC[C@H]1CC[C@@H]2c3ccccc3Cc3ccc(F)cc3[C@H]2O1 [compound 46]
Reply: criterion met

Query: # strict comparison: is reported IC50 < 500 nM? input = O=C1CNC[C@H]2C[C@@H]3c4ccccc4Cc4ccc(F)cc4[C@H]3N12 [compound 12]
Reply: criterion not met

Query: Bench note: check whether OC1CCN(C[C@H]2C[C@@H]3c4ccccc4Oc4ccc(F)cc4[C@H]3N2)C1 (some centres unmarked) [compound 20] shows IC50 below 500 nM
Reply: criterion met

Query: For CN(C)C[C@@H]1C[C@@H]2c3ccccc3Cc3ccc(F)cc3[C@H]2[S@@+]1[O-] [compound 26] , is the recorded IC50 below the cut-off of 500 nM?
Reply: criterion not met
